molecular target: GABAA receptor (γ-aminobutyric acid subtype A receptor); construct: gene Gabra1; native receptor mixture in cerebral cortical synaptosomal membranes of adult male rats; test: [3H]muscimol binding to rat cortical membranes, filtration; settings: enhancement of 5 nM [3H]muscimol binding; 50 mM Tris-HCl pH 7.4, 0-4 °C, 1 h; in DMSO; positive modulation
quantity.name: pEC50
Reminder that pEC50 is minus the log10 of a molar concentration.

[Q] Form field: reported pEC50 of C=CCc1ccc(O)c(OC)c1
[A] 2.90
